Reported IC50 is given for each of the following compounds.
- Tgt: recombinant human XIAP-BIR3 protein (Homo sapiens, UniProt P98170)
- Construct: recombinant human XIAP-BIR3 protein; purchased Reaction biology APT-11-374
- Sequence (P98170 241-356 limits assumed): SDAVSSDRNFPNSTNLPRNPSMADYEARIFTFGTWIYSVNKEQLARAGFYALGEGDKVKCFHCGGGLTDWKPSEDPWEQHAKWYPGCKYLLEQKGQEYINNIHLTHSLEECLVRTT
- Test method notes: Recombinant human XIAP-BIR3 biochemical assay (HTRF, peptide displacement)
- Experimental context: 3.7 nM XIAP-BIR3, 7.6 nM AbuRPF-K(5-Fam)-NH2 peptide, read-out: Protein binding IC50 (nM) XIAP
Attribute measured: IC50 (nM)

>>> endpoint_result("C[C@@H]1CN(CC(=O)N2c3cc(Cc4ccc(F)cc4)c(CO)nc3OC[C@@H]2C)[C@@H](CN2CCOCC23CCC3)CN1")
30
>>> endpoint_result("COC[C@@H]1COCCN1C[C@H]1CN[C@H](C)CN1CC(=O)N1c2cc(Cc3ccc(F)cc3)c(CO)nc2OC[C@@H]1C")
13
>>> endpoint_result("CC(C)OC[C@H]1COc2ncc(Cc3ccc(F)cc3)cc2N1C(=O)CN1C[C@@H](C)NC[C@@H]1CN1CCOC[C@H]1C")
49
>>> endpoint_result("CC1CN(C(=O)CN2C[C@@H](C)NC[C@@H]2CN2CCOC[C@H]2C)c2cc(Cc3ccc(F)cc3)c(Br)nc2O1 (stereo partly drawn)")
220
>>> endpoint_result("C[C@@H]1CN(CC(=O)N2c3cc(Cc4ccc(F)cc4)c(C(=O)NC4CCOCC4)nc3OC[C@@H]2C)[C@@H](CN2[C@H](C)COC[C@H]2C)CN1")
4.4
